Values from the Human Domainome abundance scans (Beltran et al. 2025)

B1: Histone H1t, residues 44 to 112; numbered along this chain, P22492 (parent)
chain: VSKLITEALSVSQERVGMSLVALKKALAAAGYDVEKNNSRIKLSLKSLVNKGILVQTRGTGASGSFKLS

Variants of: B1
Test: abundance fitness (aPCA) (normalised: wild type 0, dead -1); higher = more abundant; growth selection in yeast, the domain comes from the species named
Details: Homo sapiens
Each entry falls in a class defined on abundance fitness; the bands are low end: < -0.3; middle: ≥ -0.3 and < -0.08; high end: ≥ -0.08

VSKLITEALSVSQERVGMSLVALKKALAAAGYDVEKNQSRIKLSLKSLVNKGILVQTRGTGASGSFKLS [N38Q] | high end
VSKLITEALSVSQERVGMSLVALKKALAAAGYDVEKNNNRIKLSLKSLVNKGILVQTRGTGASGSFKLS [S39N] | high end
VSKLITEALSVSQERVGMSLVALKKALAAAGYDVEKNNSRIKLSLKSLVNKGILVQTRGTGACGSFKLS [S63C] | low end
VSKLITEALSVSQERVGMSLVALKKALAAAGYDVEKNNSRIKLSLKSLVNKGILVQTRGTGASGSMKLS [F66M] | middle
VSKLITEALSVSQERVGMSLVALKKALAAAGYDVEKNNSRIKLSLKSLVNKGILVQTRGTGASGSFKIS [L68I] | middle
VSKLITEALSVSQERVGMSLVALKKALAAAGYDEEKNNSRIKLSLKSLVNKGILVQTRGTGASGSFKLS [V34E] | low end
VSKLITEALSVSQERVGMSLVALCKALAAAGYDVEKNNSRIKLSLKSLVNKGILVQTRGTGASGSFKLS [K24C] | low end
VSKLITEALSVSQERVGMSLVALKKALAAAGYDVEKNNSRIKLSLKSLVNKGILVQTYGTGASGSFKLS [R58Y] | middle
VSKLITEALSVSQERVGMSLVALKKALAAAGYDVEKNNSRIKLSIKSLVNKGILVQTRGTGASGSFKLS [L45I] | low end
VSKLITEALSVSQERVGMSLVALKKALAAAGYDVEKNGSRIKLSLKSLVNKGILVQTRGTGASGSFKLS [N38G] | middle
VSKLITEALSVSQERVGMSLVALKKALAAAGYDVEKNNSRIKLSLKSLVTKGILVQTRGTGASGSFKLS [N50T] | high end
VSKLITEALSVSQERVGMSLVALKKALAAAGYDVEKNNSRDKLSLKSLVNKGILVQTRGTGASGSFKLS [I41D] | low end
VSKLITEALSVSQERVGMSLHALKKALAAAGYDVEKNNSRIKLSLKSLVNKGILVQTRGTGASGSFKLS [V21H] | high end
VSKLITEALSVSQERVGMSLVALKKALAAAGYDVEKNNSRIKLSLKSLVNKGILVQTRGTGAVGSFKLS [S63V] | high end
VSKLITEALSVSQERVGMSLVALKKALAAAGYDVEKNESRIKLSLKSLVNKGILVQTRGTGASGSFKLS [N38E] | high end
VSKLITEALSVSQERVGMSLVALKKALAAAGYDVEKNNSRIKLSLKSLVNKGILVQTRGTGANGSFKLS [S63N] | middle
VSKLITEALSVSQERVGMSLVALKKALAAAGYDVEKNNSRIKLSLKSLVNKGILVQTRGTPASGSFKLS [G61P] | middle
VSKLITEALSVSQERVGMSLVALKKALAAAGYDVEKNNSRIKLSLKSLVNKGILVQTRGTLASGSFKLS [G61L] | middle
VSKLITEALSVSQERVGMSLVALKKALAGAGYDVEKNNSRIKLSLKSLVNKGILVQTRGTGASGSFKLS [A29G] | middle
VSKLITEALSVSQERVGMSLVALKKALAAAGYDVEKNNSRIKLSLKSLVNDGILVQTRGTGASGSFKLS [K51D] | low end
VSKLITEALSVSQERVGMSLVALIKALAAAGYDVEKNNSRIKLSLKSLVNKGILVQTRGTGASGSFKLS [K24I] | low end
VSKLITEALSVSQERVGMSLVALKKALAAAGYDVEKNNSRIKLSLKSLVNKGILVQTRGTMASGSFKLS [G61M] | middle
VSKLITEALSVSQERVGMSLVALKKALAAAGYDVEKNNSRIKLSLKSLVNKGILVQTRGTGASGSFWLS [K67W] | middle
VSKLITEALSVSQERVGMSLVALKKALAAAGYDVEKNNSRIKLSFKSLVNKGILVQTRGTGASGSFKLS [L45F] | low end
VSKLITEALSVSQERVGMSLEALKKALAAAGYDVEKNNSRIKLSLKSLVNKGILVQTRGTGASGSFKLS [V21E] | high end
VSKLITEALSVSQERVGMSLVALKFALAAAGYDVEKNNSRIKLSLKSLVNKGILVQTRGTGASGSFKLS [K25F] | low end
VSKLITEALSVSQERVGMSLVALKKALAAAGYDVEKNNSRIKLSLKSLVNKGILVQPRGTGASGSFKLS [T57P] | high end
VSKLITEALSVSQERVGMSLNALKKALAAAGYDVEKNNSRIKLSLKSLVNKGILVQTRGTGASGSFKLS [V21N] | high end
VSKLITEALSVSQERVGMSLVALKKALAAAGYDVEKNNSRIKLSLKQLVNKGILVQTRGTGASGSFKLS [S47Q] | high end
VSKLITEALSVSQERVGMSLVALKKALAAAGYDVEKNNSRIKLSLKSLVFKGILVQTRGTGASGSFKLS [N50F] | low end
VSKLITEALSVSQERVGMSLVALKKALAAAGYWVEKNNSRIKLSLKSLVNKGILVQTRGTGASGSFKLS [D33W] | high end
VSKLITEALSVSQERVGMSLVALKKALAAAGYDVEKNNSRIKLSTKSLVNKGILVQTRGTGASGSFKLS [L45T] | low end
VSKLITEALSVSQERVGMSLVALFKALAAAGYDVEKNNSRIKLSLKSLVNKGILVQTRGTGASGSFKLS [K24F] | low end
VSKLITEALSVSQERVGMSLVALKKALAAAGYDVEKNNSRIKLSLYSLVNKGILVQTRGTGASGSFKLS [K46Y] | low end
VSKLITEALSVSQERVGMSLVALKKALAAAGYDVEKNNSRIKLSLKSLVNKGILVQTRETGASGSFKLS [G59E] | middle
VSKLITEALSVSQERVGMSLVALKKALAAAGYDVEKNNSRIKLSLKYLVNKGILVQTRGTGASGSFKLS [S47Y] | middle
VSKLITEALSVSQERVGMSLVALKKALAAAGYDVEKNNSRIKLSLKSLVNKGILVQTRGTGAFGSFKLS [S63F] | high end
VSKLITEALSVSQERVGMSLVALKKALAAAGYDVEKNNSRIKLSLKSLVNKGILVQTRGTGASGSFPLS [K67P] | middle
